Each entry below carries its recorded BRM Max % Inhibition.
# System tested: BRM (Homo sapiens)
# Sequence (P51531 whole entry): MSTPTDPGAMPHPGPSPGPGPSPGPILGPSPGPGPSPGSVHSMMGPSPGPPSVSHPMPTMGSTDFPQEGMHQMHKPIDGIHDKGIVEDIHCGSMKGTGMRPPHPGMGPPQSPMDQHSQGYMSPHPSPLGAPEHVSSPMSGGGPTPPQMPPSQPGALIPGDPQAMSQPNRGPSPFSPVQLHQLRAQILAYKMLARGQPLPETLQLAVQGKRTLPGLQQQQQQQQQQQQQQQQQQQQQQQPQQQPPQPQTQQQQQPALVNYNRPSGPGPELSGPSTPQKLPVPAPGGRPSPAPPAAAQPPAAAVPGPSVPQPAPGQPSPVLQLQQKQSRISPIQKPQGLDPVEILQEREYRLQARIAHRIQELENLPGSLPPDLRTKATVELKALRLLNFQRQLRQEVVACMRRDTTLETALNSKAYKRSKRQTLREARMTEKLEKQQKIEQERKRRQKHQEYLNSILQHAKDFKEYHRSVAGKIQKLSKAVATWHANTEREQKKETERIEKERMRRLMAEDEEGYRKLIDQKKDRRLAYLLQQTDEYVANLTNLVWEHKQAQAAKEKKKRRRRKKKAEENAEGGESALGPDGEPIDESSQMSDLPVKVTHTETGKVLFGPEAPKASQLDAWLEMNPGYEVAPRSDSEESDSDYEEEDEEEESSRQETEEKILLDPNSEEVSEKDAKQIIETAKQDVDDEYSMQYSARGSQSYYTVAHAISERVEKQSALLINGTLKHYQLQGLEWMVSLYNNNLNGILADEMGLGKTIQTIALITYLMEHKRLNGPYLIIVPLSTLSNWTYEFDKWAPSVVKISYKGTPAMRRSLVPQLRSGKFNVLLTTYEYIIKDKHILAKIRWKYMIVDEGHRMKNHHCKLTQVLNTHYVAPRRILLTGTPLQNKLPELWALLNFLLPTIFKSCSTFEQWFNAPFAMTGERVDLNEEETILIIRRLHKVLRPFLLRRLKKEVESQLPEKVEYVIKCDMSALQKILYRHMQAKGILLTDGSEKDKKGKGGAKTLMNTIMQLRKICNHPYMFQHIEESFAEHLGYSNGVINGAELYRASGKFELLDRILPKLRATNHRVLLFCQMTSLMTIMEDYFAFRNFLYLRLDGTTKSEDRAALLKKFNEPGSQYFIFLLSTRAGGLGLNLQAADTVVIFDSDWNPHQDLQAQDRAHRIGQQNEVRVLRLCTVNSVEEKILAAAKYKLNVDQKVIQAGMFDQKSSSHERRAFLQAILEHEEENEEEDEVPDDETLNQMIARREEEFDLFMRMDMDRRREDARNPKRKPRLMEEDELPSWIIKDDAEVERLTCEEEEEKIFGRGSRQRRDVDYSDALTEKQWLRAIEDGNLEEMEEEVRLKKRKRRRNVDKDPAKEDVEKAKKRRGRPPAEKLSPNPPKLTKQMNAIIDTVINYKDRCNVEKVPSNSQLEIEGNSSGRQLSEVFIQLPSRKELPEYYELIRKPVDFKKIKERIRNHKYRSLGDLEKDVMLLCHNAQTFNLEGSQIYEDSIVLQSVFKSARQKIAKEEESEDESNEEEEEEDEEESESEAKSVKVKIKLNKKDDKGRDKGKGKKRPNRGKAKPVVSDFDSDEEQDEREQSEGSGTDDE
# Protocol description: ATPase catalytic activity assay of BRM (ADP-Glo)
# Type: biochemical

Known results for compounds:
{"Compound": "CC(C)S(=O)(=O)c1cccc(C(=O)NCC(=O)Nc2nc(-c3cccc(N4C[C@@H](C)O[C@@H](C)C4)c3)cs2)c1 [Compound 14]", "System tested": "BRM (Homo sapiens)", "BRM Max % Inhibition": ">95%"}
{"Compound": "CC(C(F)(F)F)S(=O)(=O)c1cccc(C(=O)NCC(=O)Nc2nc(-c3cccc(-c4ccncc4)c3)cs2)c1 (stereo not drawn) [Compound 113]", "System tested": "BRM (Homo sapiens)", "BRM Max % Inhibition": ">80%"}
{"Compound": "C[C@@H]1CN(c2cccc(-c3csc(NC(=O)CNC(=O)c4ccc5c(c4)[C@@]4(CCC[C@@H]4O)CC5)n3)c2)C[C@H](C)O1 [Compound 186]", "System tested": "BRM (Homo sapiens)", "BRM Max % Inhibition": ">95%"}
{"Compound": "Cn1ccc2ccc(-c3csc(NC(=O)CNC(=O)c4ccc5c(c4)[C@](C)(F)COC5)n3)cc2c1=O [Compound 389]", "System tested": "BRM (Homo sapiens)", "BRM Max % Inhibition": ">95%"}
{"Compound": "Cc1cc(C(=O)NCC(=O)Nc2nc(-c3cccc(-c4ccncc4)c3)cs2)cc(S(=O)(=O)C(C)C)c1C [Compound 16]", "System tested": "BRM (Homo sapiens)", "BRM Max % Inhibition": ">70%"}
{"Compound": "Cc1ccc(C(=O)NCC(=O)Nc2nc(-c3cccc(-c4ccn(C)n4)c3)cs2)cc1C(C)(C)CN [Compound 70]", "System tested": "BRM (Homo sapiens)", "BRM Max % Inhibition": ">95%"}

Q. Which BRM Max % Inhibition is listed for Cc1nccc(-c2cccc(-c3csc(NC(=O)CNC(=O)c4ccc5c(c4)[C@](C)(CO)CCC5)n3)n2)n1 [Compound 212] ?
A. >70%

====

# System tested: BRM (Homo sapiens)
# Protocol description: ATPase catalytic activity assay of BRM (ADP-Glo)
# Assay type: biochemical
# Run conditions: read-out: BRM IC50 (μM)*
Overview of recorded IC50 for various compounds

A selection of reference data follows.
{"Compound": "C[C@@H]1CN(c2cccc(-c3csc(NC(=O)CNC(=O)c4ccc5c(c4)C4(CCO5)CCO4)n3)n2)C[C@H](C)O1 (some centres unmarked)", "System tested": "BRM (Homo sapiens)", "Experimental readout": "IC50", "Reported measurement": "< 0.1 µM"}
{"Compound": "Cc1cc(-c2cccc(-c3csc(NC(=O)CNC(=O)c4ccc5c(c4)[C@@](C)(CO)CC5)n3)c2)nc(C)n1", "System tested": "BRM (Homo sapiens)", "Experimental readout": "IC50", "Reported measurement": "< 0.1 µM"}
{"Compound": "Cc1cc(C(=O)NCC(=O)Nc2nc(-c3cccc(-c4ccncc4)c3)cs2)cc(C(C)(C)C#N)c1C", "System tested": "BRM (Homo sapiens)", "Experimental readout": "IC50", "Reported measurement": "0.1 to 1 µM"}
{"Compound": "CN(C)Cc1cc(-c2cccc(-c3csc(NC(=O)CNC(=O)c4cccc(C(C)(C)CN)c4)n3)c2)ccn1", "System tested": "BRM (Homo sapiens)", "Experimental readout": "IC50", "Reported measurement": "0.1 to 1 µM"}

Below: the item to evaluate.
Q. Look at this compound and give its reported IC50. C[C@@H]1CN(c2cccc(-c3csc(NC(=O)CNC(=O)c4ccc5c(c4)C(C)(C#N)CNC5)n3)c2)C[C@H](C)O1 (stereo in doubt) [Compound 287]
A. < 0.1 µM
